Listed here: items and their measured Trep Concentration 60 min.
experiment: Stability in human subcutaneous skin homogenate
measurement_label: Trep Concentration 60 min (µM)

> print(dat)
                                   molecule  value.measured
1  CCCCCC(CCC1C(O)CC2Cc3c(cccc3OCC(=O)O)CC21)OC(=O)CCN (centres unmarked) [XXXVII]          0.0137
2  CCCCCC(CCC1C(O)CC2Cc3c(cccc3OCC(=O)O)CC21)OC(=O)C1CCCN1 (centres unmarked) [XXXVI]           0.559
3  CCCCCC(CCC1C(O)CC2Cc3c(cccc3OCC(=O)O)CC21)OC(=O)NC (centres unmarked) [VIII]               0
4  CCCCCC(CCC1C(O)CC2Cc3c(cccc3OCC(=O)O)CC21)OC(=O)CCC(=O)O (centres unmarked) [XX]           0.019
5  CCCCCC(CCC1C(O)CC2Cc3c(cccc3OCC(=O)O)CC21)OC(=O)C(C)C (centres unmarked) [LXVII]           0.408
6  CCCCCC(CCC1C(O)CC2Cc3c(cccc3OCC(=O)O)CC21)OC(=O)OCC (centres unmarked) [XVI]            0.31
7  CCCCCC(CCC1C(O)CC2Cc3c(cccc3OCC(=O)O)CC21)OC(=O)N1CCCCC1 (centres unmarked) [XIX]               0
8  CCCCC[C@@H](CC[C@@H]1[C@H]2Cc3cccc(OCC(=O)O)c3C[C@H]2C[C@H]1O)OC(=O)[C@@H](N)C(C)C [XXIX]          0.0488

###

Measured Trep Concentration (μM) 30 min values are reported for all entries that follow.
test: Stability in cryopreserved hepatocytes, human
measurement_label: Trep Concentration (μM) 30 min (µM)

> print(dat)
                                    compound               measurement.label  value.measured
 1  CCCCCC(CCC1C(O)CC2Cc3c(cccc3OCC(=O)O)CC21)OC(=O)C12CC3CC(CC(C3)C1)C2 (centres unmarked) [LXIX]  Trep Concentration (μM) 30 min           0.294
 2  CCCCCC1CCC2C(CC3Cc4c(cccc4OCC(=O)O)CC32)OP(=O)(Oc2ccccc2)O1 (mixture of isomers) [XXVIII]  Trep Concentration (μM) 30 min               0
 3  CCCCCC(CCC1C(O)CC2Cc3c(cccc3OCC(=O)O)CC21)OC(=O)NC (centres unmarked) [VIII]  Trep Concentration (μM) 30 min               0
 4  CCCCCC(CCC1C(O)CC2Cc3c(cccc3OCC(=O)O)CC21)OCC (centres unmarked) [XLVII]  Trep Concentration (μM) 30 min          0.0199
 5  CCCCCC(CCC1C(O)CC2Cc3c(cccc3OCC(=O)O)CC21)OC(=O)NCCO (centres unmarked) [LIX]  Trep Concentration (μM) 30 min               0
 6  CCCCCC(CCC1C(O)CC2Cc3c(cccc3OCC(=O)O)CC21)OC(=O)C(C)(C)C (centres unmarked) [XLIX]  Trep Concentration (μM) 30 min           0.179
 7  CCCCCC(CCC1C(O)CC2Cc3c(cccc3OCC(=O)O)CC21)OCC(=O)O (centres unmarked) [LVII]  Trep Concentration (μM) 30 min               0
 8  CCCCCC(CCC1C(O)CC2Cc3c(cccc3OCC(=O)O)CC21)OCCC (centres unmarked) [XLVI]  Trep Concentration (μM) 30 min         0.00509
 9  CCCCCC(CCC1C(O)CC2Cc3c(cccc3OCC(=O)O)CC21)OC(=O)CCC(=O)N1CCOCC1 (centres unmarked) [XXXIII]  Trep Concentration (μM) 30 min          0.0265
10  CCCCCC(CCC1C(O)CC2Cc3c(cccc3OCC(=O)O)CC21)OC(=O)C(C)C (centres unmarked) [LXVII]  Trep Concentration (μM) 30 min           0.572
11  CCCCCC(CCC1C(O)CC2Cc3c(cccc3OCC(=O)O)CC21)OCCN1CCOCC1 (centres unmarked) [L]  Trep Concentration (μM) 30 min         0.00202
12  CCCCCC(CCC1C(O)CC2Cc3c(cccc3OCC(=O)O)CC21)OC(=O)CCC(=O)O (centres unmarked) [XX]  Trep Concentration (μM) 30 min            0.16
13  CCCCCC(CCC1C(OC(=O)CC)CC2Cc3c(cccc3OCC(=O)O)CC21)OC(=O)CC (centres unmarked) [Prodrug LXX, treprostinil dipropionate]  Trep Concentration (μM) 30 min           0.556
14  CCCCCC(CCC1C(O)CC2Cc3c(cccc3OCC(=O)O)CC21)OC(=O)c1ccc(O)c(O)c1 (centres unmarked) [LXVI]  Trep Concentration (μM) 30 min          0.0147
15  CCCCCC(CCC1C(O)CC2Cc3c(cccc3OCC(=O)O)CC21)OC(N)=O (centres unmarked) [XLII]  Trep Concentration (μM) 30 min           0.298
16  CCCCCC(CCC1C(O)CC2Cc3c(cccc3OCC(=O)O)CC21)OC(=O)C(N)CCCCN (centres unmarked) [XXXV]  Trep Concentration (μM) 30 min          0.0749
17  CCCCCC(CCC1C(O)CC2Cc3c(cccc3OCC(=O)O)CC21)OC(=O)CCN (centres unmarked) [XXXVII]  Trep Concentration (μM) 30 min           0.041

###

assay: Stability in liver microsomes, human; conditions: human
measurement_label: AUC Mono (treprostinil formed) (µmol·min/L)

> print(dat)
                                   compound               measurement.label  value.measured
1  CCCCCC(CCC1C(O)CC2Cc3c(cccc3OCC(=O)O)CC21)OC(=O)OC (stereo not drawn) [Prodrug IV]  AUC Mono (treprostinil formed)            16.9
2  CCCCCC(CCC1C(OC(=O)CC)CC2Cc3c(cccc3OCC(=O)O)CC21)OC(=O)CC (stereo not drawn) [Prodrug LXX, treprostinil dipropionate]  AUC Mono (treprostinil formed)            37.4
3  CCCCCC(CCC1C(O)CC2Cc3c(cccc3OCC(=O)O)CC21)OC(=O)CC (stereo not drawn) [Prodrug LV]  AUC Mono (treprostinil formed)            44.9
4  CCCCCC(CCC1C(OC(=O)OC)CC2Cc3c(cccc3OCC(=O)O)CC21)OC(=O)OC (stereo not drawn) [Prodrug LXXI, treprostinil dicarbonate]  AUC Mono (treprostinil formed)            10.6
5  CCCCCC(CCC1C(O)CC2Cc3c(cccc3OCC(=O)O)CC21)OC(C)=O (stereo not drawn) [Prodrug XLIII]  AUC Mono (treprostinil formed)            32.6
6  CCCCCC(CCC1C(O)CC2Cc3c(cccc3OCC(=O)O)CC21)OP(=O)(O)O (stereo not drawn) [Prodrug VI]  AUC Mono (treprostinil formed)             2.4

###

assay: Stability in cryopreserved hepatocytes, human
Here the recorded Trep Concentration (μM) 30 min is given for each entry.
measurement_label: Trep Concentration (μM) 30 min (µM)

> print(dat)
                                   molecule               measurement.label  unit.symbol  value.measured
1  CCCCC[C@H]1CC[C@@H]2[C@H]3Cc4cccc(OCC(=O)O)c4C[C@H]3C[C@H]2OC(=O)O1  Trep Concentration (μM) 30 min           µM           0.264
2  CCCCCC(CCC1C(O)CC2Cc3c(cccc3OCC(=O)O)CC21)OC(=O)c1ccc(O)cc1 (centres unmarked)  Trep Concentration (μM) 30 min           µM           0.194
3  CCCCCC(CCC1C(O)CC2Cc3c(cccc3OCC(=O)O)CC21)OC(=O)C1CCCN1 (centres unmarked)  Trep Concentration (μM) 30 min           µM           0.512
4  CCCCCC(CCC1C(O)CC2Cc3c(cccc3OCC(=O)O)CC21)OC(=O)c1ccccc1O (centres unmarked)  Trep Concentration (μM) 30 min           µM          0.0378
5  CCCCCC(CCC1C(O)CC2Cc3c(cccc3OCC(=O)O)CC21)Oc1ccccc1C(=O)O (centres unmarked)  Trep Concentration (μM) 30 min           µM               0
6  CCCCCC(CCC1C(O)CC2Cc3c(cccc3OCC(=O)O)CC21)OC(=O)COc1ccc(O)cc1 (centres unmarked)  Trep Concentration (μM) 30 min           µM            0.47
7  CCCCCC(CCC1C(O)CC2Cc3c(cccc3OCC(=O)O)CC21)OP(=O)(O)O (centres unmarked)  Trep Concentration (μM) 30 min           µM           0.365
8  CCCCCC(CCC1C(O)CC2Cc3c(cccc3OCC(=O)O)CC21)OC(=O)COc1ccc(OC(F)(F)F)cc1 (centres unmarked)  Trep Concentration (μM) 30 min           µM           0.509

The measurements presented in this section are drawn from patent US12491170B2.
